Data origin, for the record: paper PMC12416549

Biological target: T1, TNFR1 (Homo sapiens, UniProt P19438)
T1 chain: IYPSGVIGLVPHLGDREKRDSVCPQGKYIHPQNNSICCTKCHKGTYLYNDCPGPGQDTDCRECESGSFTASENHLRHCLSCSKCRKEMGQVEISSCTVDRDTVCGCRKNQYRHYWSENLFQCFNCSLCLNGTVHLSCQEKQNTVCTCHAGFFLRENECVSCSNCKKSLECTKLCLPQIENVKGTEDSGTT
Assay: yeast display SC50
quantity-measured: apparent Kd (screen) (nM)

(I) E5P (designed binder) SMEEPVEKAAKEYEKKKKEAIEKHLEKLKAKDKEAAERFLKELEEAAKEYAKDEAKTMSEEEAKRRAKKYKEKVLLSELSEEEQKEIKEAEEKLVRTILKYVEEAAK
(II) E14P (designed binder) SMEEEVEKAAKEYPKKKKEAIEKHLEKLKAKDKEAAERFLKELEEAAKEYAKDEAKTMSEEEAKRRAKKYKEKVLLSELSEEEQKEIKEAEEKLVRTILKYVEEAAK
(III) E14N (designed binder) SMEEEVEKAAKEYNKKKKEAIEKHLEKLKAKDKEAAERFLKELEEAAKEYAKDEAKTMSEEEAKRRAKKYKEKVLLSELSEEEQKEIKEAEEKLVRTILKYVEEAAK
(IV) K27I (designed binder) SMEEEVEKAAKEYEKKKKEAIEKHLEILKAKDKEAAERFLKELEEAAKEYAKDEAKTMSEEEAKRRAKKYKEKVLLSELSEEEQKEIKEAEEKLVRTILKYVEEAAK
Data request: // smallest apparent Kd (screen) at index 0, largest at the end Labels, requested order.
Data returned: I, IV, III, II
(I: 0.446 nM, IV: 1.05 nM, III: 5.31 nM, II: 11.4 nM)
